- tested-on: T1, SARS-CoV-2 spike trimer S (Wuhan, SmT1) (SARS-CoV-2 Wuhan)
- T1 construct: extracellular domain
- procedure-details: SPR, antigen on chip
Provide the recorded koff for the entries that follow.
Phrase the answer as number then unit, nothing more needed.

Short answer for NRCoV2-SR01 VHH (VHH) VHH: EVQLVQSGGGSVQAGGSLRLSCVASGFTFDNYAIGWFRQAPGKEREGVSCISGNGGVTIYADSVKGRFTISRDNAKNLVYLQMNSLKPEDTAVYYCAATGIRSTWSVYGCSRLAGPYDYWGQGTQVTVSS : koff was 0.00123 s⁻¹

Short answer for NRCoV2-SR03 VHH (VHH) VHH: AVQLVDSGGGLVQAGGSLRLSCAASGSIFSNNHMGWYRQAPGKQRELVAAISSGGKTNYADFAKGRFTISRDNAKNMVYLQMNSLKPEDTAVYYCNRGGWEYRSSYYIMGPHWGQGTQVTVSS : koff was 0.00102 s⁻¹
